# tgt: MCR-4 (Homo sapiens, UniProt P32245)
# Construct: expressed in transfected cells; host or cells: HEK 293
# Sequence (P32245 whole entry): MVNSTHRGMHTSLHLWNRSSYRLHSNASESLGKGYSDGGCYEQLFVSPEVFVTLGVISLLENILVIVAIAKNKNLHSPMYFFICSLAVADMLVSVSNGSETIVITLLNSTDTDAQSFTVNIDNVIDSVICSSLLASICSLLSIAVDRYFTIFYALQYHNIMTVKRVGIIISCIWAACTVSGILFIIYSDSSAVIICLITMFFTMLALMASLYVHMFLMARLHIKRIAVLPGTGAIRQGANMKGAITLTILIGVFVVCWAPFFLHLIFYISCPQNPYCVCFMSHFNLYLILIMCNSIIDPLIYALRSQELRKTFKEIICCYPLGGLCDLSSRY
# experimentDescription: Melanocortin receptor binding assay, competition with 125I-HP 467, HEK 293 cells expressing hMCR-4
# conditionLabel: inhibition of binding of 125I-HP 467, HEK 293 cells expressing MCR-4; TRG 2414 library; read-out: MC-4 IC50
observationType: IC50 (µM)

[
  {
    "compound": "NCC(CCCCN1Cc2ccccc2C(CNCc2ccccc2C(F)(F)F)C1c1ccc(Oc2ccccc2)cc1)NCCc1ccccc1 (stereo not drawn)",
    "tgt": "MCR-4 (Homo sapiens, UniProt P32245)",
    "reportedResult": 55.5
  },
  {
    "compound": "COc1ccc(CCNCC2c3ccccc3CN(CCCCC(CN)NCc3ccccc3)C2c2cc(C(F)(F)F)cc(C(F)(F)F)c2)cc1 (stereo not drawn)",
    "tgt": "MCR-4 (Homo sapiens, UniProt P32245)",
    "reportedResult": 5.21
  },
  {
    "compound": "CCCOc1ccc(C2C(CNCc3ccc(OC)cc3)c3ccccc3CN2CCCCC(CN)NCc2ccccc2)cc1 (stereo not drawn)",
    "tgt": "MCR-4 (Homo sapiens, UniProt P32245)",
    "reportedResult": 4.95
  }
]

1 = NCC(N)CCCCN1Cc2ccccc2C(CNCc2ccccc2C(F)(F)F)C1c1cccc(Oc2ccccc2)c1 (mixture of isomers)
2 = COc1ccccc1CCNCC1c2ccccc2CN(CCCCC(CN)NCCc2ccccc2)C1c1ccc(Cl)cc1Cl (stereo not drawn)
3 = CCCOc1ccc(C2C(CNCc3cccc(OC)c3)c3ccccc3CN2CCCCC(CN)NCC(C)c2ccc(CC(C)C)cc2)cc1 (mixture of isomers)
Asked: Order field: IC50 | Direction: descending (largest first) Write the labels out in the order the request specifies.
Given back: 3, 1, 2

====

# tgt: MCR-4 (Homo sapiens, UniProt P32245)
# Construct: expressed in transfected cells; host or cells: HEK 293
# experimentDescription: Melanocortin receptor binding assay, competition with 125I-HP 467, HEK 293 cells expressing hMCR-4
# conditionLabel: inhibition of binding of 125I-HP 467, HEK 293 cells expressing MCR-4; read-out: MC-4 IC50
# Protocol: All cell culture media and reagents were obtained from GibcoBRL (Gaithersburg Md.), except for COSMIC CALF SERUM (HyClone; Logan Utah). Cells were suspended in PBS, 10% COSMIC CALF SERUM and 1 mM CaCl2. […] To assay isoquinoline compounds, binding assays were performed in duplicate in a 96 well format. […] Cells were harvested on GF/B filter plates as described above and counted.
pIC50: −log10 of the molar value.
observationType: pIC50

Example results:
[
  {
    "molecule": "COc1cccc(CCNCC2c3ccccc3CN(CCCCC(CN)NCc3ccccc3)C2c2cc(C(F)(F)F)cc(C(F)(F)F)c2)c1 (centres unmarked) [TRG 2421-36]",
    "pIC50": 6.05
  },
  {
    "molecule": "COc1ccc(CNC(CN)CCCCN2Cc3ccccc3C(CNCCc3ccccc3)C2c2cccc(C(F)(F)F)c2)cc1 (centres unmarked) [TRG 2421-42]",
    "pIC50": 5.76
  },
  {
    "molecule": "CCOc1ccc(CCNCC2c3ccccc3CN(CCCCC(CN)NCc3ccc(-c4ccccc4)cc3)C2c2cc(C(F)(F)F)cc(C(F)(F)F)c2)cc1 (centres unmarked) [TRG 2421-25]",
    "pIC50": 4.96
  }
]

A = CCCCNc1ccc(C2C(CNC3CCCCC3)c3ccccc3CN2CCCC(CN)NCCc2ccc(OC)cc2)cc1 (centres unmarked) [TRG 2411-209]
B = CCNc1ccc(C2C(CN)c3ccccc3CN2CCCC[C@@H](CN)NCCCCOc2ccccc2)cc1 (some centres unmarked) [2424#8]
Asked: Param pair: A , B . Output: the one whose pIC50 is numerically greater. Label of pick, please.
Given back: A

====

# tgt: MCR-1 (Homo sapiens, UniProt Q01726)
# Construct: expressed in transfected cells; host or cells: HEK 293
# Sequence (Q01726 whole entry): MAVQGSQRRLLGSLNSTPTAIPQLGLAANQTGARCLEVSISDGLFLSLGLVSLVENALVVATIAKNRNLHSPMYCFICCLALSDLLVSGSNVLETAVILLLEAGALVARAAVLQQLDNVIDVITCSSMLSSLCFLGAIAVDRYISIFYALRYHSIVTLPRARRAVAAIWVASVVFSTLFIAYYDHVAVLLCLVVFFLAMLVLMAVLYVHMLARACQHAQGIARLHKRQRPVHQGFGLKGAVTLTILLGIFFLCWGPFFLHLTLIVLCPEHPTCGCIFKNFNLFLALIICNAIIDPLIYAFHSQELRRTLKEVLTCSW
# experimentDescription: Melanocortin receptor binding assay, competition with 125I-HP 467, HEK 293 cells expressing hMCR-1
# conditionLabel: competition with 125I-HP 467, HEK 293 cells expressing MCR-1; read-out: MC-1 IC50
observationType: IC50 (nM)

[
  {
    "compound": "CNC(CN)CCCCN1Cc2ccccc2C(CNC2CCCCC2)C1c1ccc(NCCOC)cc1 (centres unmarked)",
    "IC50, nM": 2720
  },
  {
    "compound": "CCCCNc1ccc(C2C(CN)c3ccccc3CN2CCCC(CN)NCCN)cc1 (centres unmarked)",
    "IC50, nM": 230
  }
]

a = CCCCNc1ccc(C2C(CN)c3ccccc3CN2CCCC(CN)NCCc2ccc(OC)cc2)cc1 (centres unmarked)
b = CCCCNc1ccc(C2C(CNCCc3ccccc3)c3ccccc3CN2CCCCC(CN)NCCc2ccccc2)cc1 (centres unmarked)
c = NCC(CCCN1Cc2ccccc2C(CN)C1c1ccc(-c2ccccc2)cc1)NCC1CCCCC1 (centres unmarked)
d = CCNc1ccc(C2C(CNC3CCCCC3)c3ccccc3CN2CCCCC(CN)NCCc2ccc(Br)cc2)cc1 (centres unmarked)
Asked: Please give the order of these compounds when sorted by IC50, largest value leading. Reply: labels, ordered per the request.
Given back: c, d, b, a

A = CCCCNC(CN)CCCCN1Cc2ccccc2C(CN)C1c1ccc(NCC)cc1 (centres unmarked)
B = CCNC(CN)CCCCN1Cc2ccccc2C(CN)C1c1ccc(-c2ccccc2)cc1 (centres unmarked)
C = CNC(CN)CCCN1Cc2ccccc2C(CNCCc2ccccc2)C1c1ccc(-c2ccccc2)cc1 (centres unmarked)
Asked: Sort ascending by IC50. Show the ranking through the labels, in the order asked for.
Given back: A, B, C
(A: 110 nM, B: 530 nM, C: 760 nM)

I = COCCNC(CN)CCCCN1Cc2ccccc2C(CN)C1c1ccc(-c2ccccc2)cc1 (centres unmarked)
II = CCNc1ccc(C2C(CN)c3ccccc3CN2CCCCC(CN)NCc2ccccc2)cc1 (centres unmarked)
III = CCCCNc1ccc(C2C(CNCCc3ccccc3)c3ccccc3CN2CCCCC(CN)NCCN)cc1 (centres unmarked)
Asked: Ascending sort, IC50. Reply with the labels, ordered as the question asks.
Given back: II, III, I

P = CCNc1ccc(C2C(CNCCc3ccccc3)c3ccccc3CN2CCCCC(CN)NCc2ccc(OC)cc2)cc1 (centres unmarked)
Q = CCNc1ccc(C2C(CNCCc3ccccc3)c3ccccc3CN2CCCC[C@@H](CN)NCCc2ccc(OC)cc2)cc1 (some centres unmarked)
Asked: Select the item whose IC50 value is smaller, choosing between P and Q . In your reply, give the label of the chosen option.
Given back: P
(P: 120 nM, Q: 320 nM)

a = CCCCNc1ccc(C2C(CNC3CCCCC3)c3ccccc3CN2CCCCC(CN)NCc2ccc(OC)cc2)cc1 (centres unmarked)
b = COCCNC(CN)CCCCN1Cc2ccccc2C(CNC2CCCCC2)C1c1ccc(-c2ccccc2)cc1 (centres unmarked)
c = NCC(CCCN1Cc2ccccc2C(CNC2CCCCC2)C1c1ccc(-c2ccccc2)cc1)N1CCCC1 (centres unmarked)
Asked: Order these by IC50, descending, and give the full ranking. Reply with the item labels sorted in the order that was asked for.
Given back: b, c, a
(b: 490 nM, c: 230 nM, a: 110 nM)

a = CCCCNc1ccc(C2C(CNC3CCCCC3)c3ccccc3CN2CCCCC(CN)NCc2ccc(Cl)cc2)cc1 (centres unmarked)
b = NCCNC(CN)CCCCN1Cc2ccccc2C(CN)C1c1ccc(-c2ccccc2)cc1 (centres unmarked)
Asked: Of a and b , which one carries the higher reported IC50? Reply briefly: the label of your chosen item.
Given back: b

====

# tgt: MCR-1 (Homo sapiens)
# Construct: expressed in transfected cells; host or cells: HEK 293
# experimentDescription: Melanocortin receptor binding assay, competition with 125I-HP 467, HEK 293 cells expressing hMCR-1
# conditionLabel: inhibition of binding of 125I-HP 467, HEK 293 cells expressing MCR-1; TRG 2414 library; read-out: MC-1 IC50
# Protocol: All cell culture media and reagents were obtained from GibcoBRL (Gaithersburg Md.), except for COSMIC CALF SERUM (HyClone; Logan Utah). Cells were suspended in PBS, 10% COSMIC CALF SERUM and 1 mM CaCl2. […] To assay isoquinoline compounds, binding assays were performed in duplicate in a 96 well format. […] Cells were harvested on GF/B filter plates as described above and counted.
observationType: IC50 (µM)

[
  {
    "compound": "COc1cccc(CNCC2c3ccccc3CN(CCCCC(N)CN)C2c2cc(C(F)(F)F)cc(C(F)(F)F)c2)c1 (stereo not drawn)",
    "IC50 [µM]": 7.7
  }
]

A = NCC(CCCCN1Cc2ccccc2C(CNCCc2cccc(Cl)c2)C1c1ccc(Oc2ccccc2)cc1)NCc1ccccc1 (stereo not drawn)
B = NCC(CCCCN1Cc2ccccc2C(CNC2CCCCCC2)C1c1ccc(Oc2ccccc2)cc1)NCc1ccccc1 (stereo not drawn)
Asked: Among A and B , whose measured IC50 is the smaller figure? The response must carry the label of the picked entry.
Given back: B
(B: 2.03 µM, A: 10.1 µM)
